Reference source for all entries: patent US12370161B2

Parameter: Mouse 2 Lichenification. Scope: all listed entries.
test system: atopic dermatitis-induced Balb/c mouse; assay: SCORAD clinical skin score, DNFB-induced atopic dermatitis in Balb/c mouse; format: in vivo; settings: Mouse 2; DNFB Balb/c; 0.1% topical day 22-28; grade 0-3
attributeMeasured: Mouse 2 Lichenification

{"columns": ["molecule", "measuredValue"],
 "data": [
  ["CC(=O)N[C@@H](C)C(=O)O [N-acetyl-L-alanine]", 0],
  ["CC(=O)N[C@H](C(=O)O)C(C)C [N-acetyl-L-valine]", 3],
  ["CC(=O)N[C@@H](Cc1c[nH]c2ccccc12)C(=O)O [N-acetyl-L-tryptophan]", 0],
  ["CC(=O)N[C@@H](Cc1ccc(O)cc1)C(=O)O [N-acetyl-L-tyrosme]", 3],
  ["CC(=O)N[C@@H](CCC(=O)O)C(=O)O [N-acetyl-L-glutamic acid]", 2],
  ["CC(=O)NCC(=O)O [N-acetyl-L-glycine]", 3],
  ["CC[C@H](C)[C@H](NC(C)=O)C(=O)O [N-acetyl-L-isoleucine]", 3],
  ["CC(=O)N[C@@H](CS)C(=O)O [N-acetyl-L-cysteine, reference compound]", 3],
  ["CC(=O)N[C@@H](Cc1c[nH]cn1)C(=O)O [N-acetyl-L-histidine]", 3],
  ["CC(=O)N[C@@H](Cc1ccccc1)C(=O)O [N-acetyl-L-phenylalanme]", 3]
]}

---

test system: atopic dermatitis-induced Nc/Nga mouse; test: SCORAD clinical skin score, DNFB-induced atopic dermatitis in Nc/Nga mouse; format: in vivo; design: key: 0 = no symptom, 1 = mild, 2 = moderate, 3 = severe; conditions: Mouse 3; DNFB Nc/Nga; 0.1% topical day 15-21; graded per Example 4
attributeMeasured: Mouse 3 Erythema

{"columns": ["molecule", "assayedSystem", "measuredValue"],
 "data": [
  ["CCC(=O)N[C@@H](Cc1c[nH]c2ccccc12)C(=O)O", "atopic dermatitis-induced Nc/Nga mouse", 2],
  ["CCCCCCCCCCCCCCCC(=O)N[C@@H](Cc1c[nH]c2ccccc12)C(=O)O", "atopic dermatitis-induced Nc/Nga mouse", 2],
  ["CCCCCCCCCCCCCCCCCC(=O)N[C@@H](Cc1c[nH]c2ccccc12)C(=O)O", "atopic dermatitis-induced Nc/Nga mouse", 2]
]}

---

tested on: atopic dermatitis-induced Nc/Nga mouse; experiment: SCORAD clinical skin score, DNFB-induced atopic dermatitis in Nc/Nga mouse; type: in vivo; parameters: key: sum of individual symptom scores, each graded 0-3; details: mean of 3 mice; DNFB Nc/Nga; 0.1% topical day 15-21
Quick list: Mean (of Sum, SCORAD) per entry.

{"columns": ["molecule", "assayedSystem", "Mean (of Sum, SCORAD)"],
 "data": [
  ["CCC(=O)N[C@@H](Cc1c[nH]c2ccccc12)C(=O)O", "atopic dermatitis-induced Nc/Nga mouse", 11.3],
  ["CC(=O)N[C@@H](CCC(=O)N[C@@H](C)C(=O)O)C(=O)O", "atopic dermatitis-induced Nc/Nga mouse", 6],
  ["CCCCCCCCCCCCCCCCCC(=O)N[C@@H](Cc1c[nH]c2ccccc12)C(=O)O", "atopic dermatitis-induced Nc/Nga mouse", 11]
]}

---

test system: atopic dermatitis-induced Nc/Nga mouse; assay: SCORAD clinical skin score, DNFB-induced atopic dermatitis in Nc/Nga mouse; format: in vivo; parameters: key: 0 = no symptom, 1 = mild, 2 = moderate, 3 = severe; settings: Mouse 2; DNFB Nc/Nga; 0.1% topical day 15-21; graded per Example 4

{"columns": ["compound", "Mouse 2 Abrasion"],
 "data": [
  ["CCCCC(=O)N[C@@H](Cc1c[nH]c2ccccc12)C(=O)O [N-pentanoyl L-tryptophan, N-pentanoyl-L-tryptophan]", 1],
  ["CCC(=O)N[C@@H](Cc1c[nH]c2ccccc12)C(=O)O [N-propionyl L-tryptophan, N-propionyl-L-tryptophan]", 2],
  ["CCCCCCCCCCCCCCCC(=O)N[C@@H](Cc1c[nH]c2ccccc12)C(=O)O [N-palmitoyl-L-tryptophan]", 2],
  ["CCCCCCCCCCCCCCCCCC(=O)N[C@@H](Cc1c[nH]c2ccccc12)C(=O)O [N-stearyl-L-tryptophan, N-stearoyl-L-tryptophan]", 2],
  ["CCCCCCCC/C=C\\CCCCCCCCCCCC(=O)N[C@@H](Cc1c[nH]c2ccccc12)C(=O)O [N-(Z)-docos-13-enoyl L-tryptophan, N—(Z)-docos-13-enoyl-L-tryptophan]", 1],
  ["CCCCCCCCCCC(=O)N[C@@H](Cc1c[nH]c2ccccc12)C(=O)O [N-undecanoyl L-tryptophan, N-undecanoyl-L-tryptophan]", 2]
]}
